The measured values listed here are drawn from patent US20220298146A1.

Test: Beagle PK evaluation experiment
Assay type: in vivo
Details: dog, plasma, iv, dose 1 mg/kg, n=3, read-out: Cl_obs iv (clearance rate) (converted)
experimental_endpoint: clearance (mL/min/kg)
Answer in mL/min/kg, number only, no unit symbol.

Below, each entry is followed by its recorded clearance result.
>>> meas_value("Nc1nccc(Oc2cnc(NC(=O)c3nn(C4CC4)cc(-c4ccc(F)cc4)c3=O)nc2)c1Cl [Compound 18]")
4.83
>>> meas_value("C=CCn1cc(-c2ccc(F)cc2)c(=O)c(C(=O)Nc2ccc(Oc3ccnc(N)c3Cl)cn2)n1 [Compound 35]")
3.83
>>> meas_value("CC(C)n1cc(-c2ccc(F)cc2)c(=O)c(C(=O)Nc2ncc(Oc3ccnc(N)c3Cl)cn2)n1 [Compound 12]")
10.8
>>> meas_value("CC(C)n1cc(-c2ccc(F)cc2)c(=O)c(C(=O)Nc2ccc(Oc3ccnc(N)c3Cl)cn2)n1 [Compound 11]")
4.33

[in] Name the recorded clearance for Nc1nccc(Oc2ccc(NC(=O)c3nn(C4CC4)cc(-c4ccc(F)cc4)c3=O)nc2)c1Cl [Compound 17] .
[out] 5

[in] Name the recorded clearance for C=CCn1cc(-c2ccc(F)cc2)c(=O)c(C(=O)Nc2ncc(Oc3ccnc(N)c3Cl)cn2)n1 [Compound 37] .
[out] 6.83
